Literature roundup of Sodium-dependent serotonin transporter (Homo sapiens) data, read-out Ki.
parameter: Ki (nM)

>>> endpoint_result("COc1ccc(Oc2nc(C)ccc2OC[C@H]2CCCNC2)c(F)c1")
230

[I] CN(C)CCC(Oc1ccc(Cl)cc1Cl)c1ccc(OCCCN2CCCCC2)cc1 (centres unmarked)
[II] Clc1ccc(OCC2CCc3ccccc3O2)c(OC2CNC2)c1 (centres unmarked)
input: Which numeric Ki is bigger, that of I or that of II ? Provide the label of your selected option as the answer.
output: II
(II: 95 nM, I: 10 nM)

---

pKi: −log10 of the molar value.
Note to self: these compounds have pKi reported for Sodium-dependent serotonin transporter (Homo sapiens) in various publications.

>>> endpoint_result("CC(C)CC(Oc1ccccc1Cl)C1CCNC1 (stereo not drawn)")
"≥ 8.00"
>>> endpoint_result("C=CC[C@H](Oc1ccc(Cl)cc1)[C@H]1CCNC1")
"≥ 8.00"
>>> endpoint_result("CCCC[C@@H](Oc1c(Cl)cccc1Cl)[C@H]1CCNC1")
"≥ 8.00"
>>> endpoint_result("CN1Cc2cc(OCCCN3CCC(F)CC3)ccc2C(c2ccc(Sc3ncc[nH]3)nc2)C1 (stereo not drawn)")
7.47

input: State the recorded pKi for this entry: `C[C@H]1CNCCN1c1nc(-c2cccc(F)c2F)c2ccccc2n1`
output: 7.16

input: Suppose we examine the compound `CN1CCN(c2nc(-c3c(F)cccc3F)c3ccc(F)cc3n2)CC1` ; what pKi value has been reported?
output: 6.50

---

// cross-source set; read-out = Ki; system = Sodium-dependent serotonin transporter (Homo sapiens)
parameter: Ki (nM)

Reference set, count: 4
>>> endpoint_result("Clc1ccc(C2(COc3ccc(Cl)cc3OC3CNC3)CCC2)cc1")
65
>>> endpoint_result("Cc1cccc(-c2ccc(F)cc2CO[C@H]2CCNC2)c1")
85.8
>>> endpoint_result("c1ccc(Oc2ncccc2OC[C@H]2CCCNC2)cc1")
7500
>>> endpoint_result("COc1ccc(C2CN(C)Cc3cc(OCCCN4C[C@@H](C)O[C@@H](C)C4)ccc32)cc1 (stereo partly shown)")
9

[I] Fc1cc(F)cc(-c2ccc(F)cc2CO[C@H]2CCNC2)c1
[II] C[C@H]1CNCCN1c1nc(-c2cccc(F)c2F)c2ccc(F)cc2n1
input: # min-compare on Ki between I and II Could you answer with the label of the item you picked?
output: II

---

pKi: −log10 of the molar value.
The entries below pair compounds with pKi values for UniProt P31645, as found in several publications.
parameter: pKi

>>> endpoint_result("Oc1ccc(-c2ccc(F)cc2CO[C@H]2CCNC2)cc1")
6.18
>>> endpoint_result("Ic1cccc([C@H]2CN3CCC[C@H]3c3cc(OCCCN4CCCCC4)ccc32)c1 (relative stereo)")
7.96
>>> endpoint_result("Cc1cc(F)ccc1-c1nc(N2CCNCC2)nc2cc(F)ccc12")
6.94

[a] Clc1ccc(OCCOc2ccccc2)c(OC2CNC2)c1
[b] COCCOc1ccccc1OC(C)(C)[C@H]1CCCNC1
input: Hi! Which is lower in terms of pKi, the first one a or the second one b ? // respond with label for picked entry
output: b

[P] CN1CCN(c2nc(-c3ccc(F)c(F)c3)c3ccccc3n2)CC1
[Q] Fc1ccc(Oc2c(F)cccc2OC[C@H]2CCCNC2)c(Cl)c1
[R] Fc1cccc(-c2ccc(F)cc2CO[C@H]2CCNC2)c1
[S] Fc1ccc(-c2nc(N[C@@H]3CCNC3)nc3cc(F)ccc23)c(F)c1
input: Put these in order: smallest pKi first, largest last. Please respond by ranking the labels in the order requested.
output: Q, P, R, S
(Q: 5.72, P: 6.19, R: 7.35, S: 8.03)

[a] CC(C)Oc1ccc(-c2ccccc2CO[C@H]2CCNC2)cc1
[b] CCOc1ccccc1O[C@@H](C)[C@H]1CCCNC1
input: From the items above, decide which of a and b has the lower pKi reading. Respond using the label that marks the chosen record.
output: b

[P] COc1ccc(C2CN(C)Cc3cc(OCCCN4CCN(C(=O)C5CC5)CC4)ccc32)cc1 (centres unmarked)
[Q] COc1ccc(C2CN(C)Cc3cc(OCCCN4CCC(O)CC4)ccc32)cc1 (centres unmarked)
[R] COc1ccc(C2CN(C)Cc3cc(OCC(O)CN4CCCCC4)ccc32)cc1 (centres unmarked)
[S] Fc1ccc(-c2nc(N3CCNCC3)nc3ccccc23)cc1F
input: Arrange the 4 compounds by rising pKi, starting with the smallest. # respond with the labels, arranged in the requested order
output: S, P, R, Q
(S: 7.11, P: 7.85, R: 8.10, Q: 8.40)
